Listed next: entries and their corresponding CC50.
- RUN_DESCRIPTION: Cytotoxicity against human TZM-bl cells assessed as reduction in cell viability by CellTiter-Glo 2.0 assay
- Type: toxicity, cell-based
- MEASUREMENT_CONDITIONS: TZM-bl cells
MEASURE: CC50

COMPOUND	RESULT
COCCOCCOCCOCCOCCOCCOCCOCCOCCOCCOCCOCCNC(=O)CCC(=O)N[C@@H](CCCNC(=N)N)C(=O)NCCN1CCC(NC(=O)C(=O)Nc2ccc(F)nc2)CC12CCCCC2.O=C(O)C(F)(F)F.O=C(O)C(F)(F)F.O=C(O)C(F)(F)F (stereo partly specified)	> 100 µM
CC1(C)CC(NC(=O)C(=O)Nc2ccc(F)nc2)CC(C)(C)N1	> 300 µM
N=C(N)NCCCCC(=O)NCCN1CCC(NC(=O)C(=O)Nc2ccc(F)nc2)CC12CCCCC2.O=C(O)C(F)(F)F.O=C(O)C(F)(F)F.O=C(O)C(F)(F)F (stereo unspecified)	> 100 µM
COCCOCCOCCOCCOCCOCCOCCOCCOCCOCCOCCOCCNC(=O)CCC(=O)N[C@@H](CCCNC(=N)N)C(=O)NCCN1CCC(NC(=O)C(=O)Nc2ccc(Cl)cc2)CC12CCCCC2.O=C(O)C(F)(F)F.O=C(O)C(F)(F)F (stereo partly specified)	> 300 µM
N=C(N)NCCCCC(=O)NCCN1CCC(NC(=O)C(=O)Nc2cncc(Cl)c2)CC12CCCCC2.O=C(O)C(F)(F)F.O=C(O)C(F)(F)F.O=C(O)C(F)(F)F (stereo unspecified)	279 µM
N=C(N)NCCCCC(=O)NCCN1CCC(NC(=O)C(=O)Nc2ccc(Cl)cn2)CC1.O=C(O)C(F)(F)F.O=C(O)C(F)(F)F.O=C(O)C(F)(F)F	> 300 µM

* * *

- Tested on: TZM
- RUN_DESCRIPTION: Cytotoxicity against human TZM-bl cells assessed as reduction in cell viability by CellTiter-Glo 2.0 assay
- Assay type: toxicity, cell-based
- MEASUREMENT_CONDITIONS: tzm
MEASURE: CC50 (µM)

                                   compound  tested_target  operator_symbol  recorded_number
0  N=C(N)NCCCCC(=O)NCCN1CCC(NC(=O)C(=O)Nc2ccc(Cl)cc2)CC12CCCCC2.O=C(O)C(F)(F)F.O=C(O)C(F)(F)F (configuration not stated)            TZM                =              201
1  N=C(N)NCCCCC(=O)NCCN1CCC(NC(=O)C(=O)Nc2ccc(Cl)cc2)CC12CCCCC2 (configuration not stated)            TZM                >              100

* * *

- RUN_DESCRIPTION: Aqueous solubility of the compound in PBS at pH 7.4 at 25 degC
- Type: physicochemical
MEASURE: solubility

COMPOUND	RESULT
N=C(N)NCCCCC(=O)NCCN1CCC(NC(=O)C(=O)Nc2cncc(Cl)c2)CC12CCCCC2.O=C(O)C(F)(F)F.O=C(O)C(F)(F)F.O=C(O)C(F)(F)F (configuration not stated)	> 50 mM
N=C(N)NCCCCC(=O)NCCN1CCC(NC(=O)C(=O)Nc2ccc(Cl)cn2)CC1.O=C(O)C(F)(F)F.O=C(O)C(F)(F)F.O=C(O)C(F)(F)F	> 50 mM
N=C(N)NCCCCC(=O)NCCN1CCC(NC(=O)CNc2ccc(Cl)cn2)CC1.O=C(O)C(F)(F)F.O=C(O)C(F)(F)F.O=C(O)C(F)(F)F	> 50 mM
N=C(N)NCCCCC(=O)NCCN1CCC(NC(=O)C(=O)Nc2cncc(F)c2)CC12CCCCC2.O=C(O)C(F)(F)F.O=C(O)C(F)(F)F.O=C(O)C(F)(F)F (configuration not stated)	> 50 mM
N=C(N)NCCCCC(=O)NCCN1CCC(NC(=O)C(=O)Nc2ccc(Cl)cc2)CC12CCCCC2 (configuration not stated)	0.47 mM
N=C(N)NCCCCC(=O)NCCN1CCC(NC(=O)C(=O)Nc2ccc(Cl)cc2)CC12CCCCC2.O=C(O)C(F)(F)F.O=C(O)C(F)(F)F (configuration not stated)	> 16.4 mM
COCCOCCOCCOCCOCCOCCOCCOCCOCCOCCOCCOCCNC(=O)CCC(=O)N[C@@H](CCCNC(=N)N)C(=O)NCCN1CCC(NC(=O)C(=O)Nc2ccc(Cl)cc2)CC12CCCCC2.O=C(O)C(F)(F)F.O=C(O)C(F)(F)F (some centres not stated)	> 13 mM
